The reported numbers originate from ChEMBL document CHEMBL1201862.

System: KM12
Test: NCI tumour cell line growth inhibition, 48 h
Active and inactive are the calls of the source. No stated cut-off is given here; in the data, active = GI50 up to about 1.1 µM and inactive = higher.
VALUE_TYPE: GI50

Before answering, review these 10 worked examples.
MOLECULE: O=C1CSC2(CC(/C=C/c3cccc([N+](=O)[O-])c3)=NN2c2cccc(S(=O)(=O)O)c2)N1c1nc2ccccc2s1 (configuration not stated)
GI50: 22 µM (inactive)

MOLECULE: CC(C)Oc1cc2c(cc1O)CC[C@@H]1[C@@H]2CC[C@]2(C)[C@@H](O)CC[C@@H]12
GI50: 4.2 µM (inactive)

MOLECULE: COCOc1ccc(Cn2c(=O)n(C)c(=O)c3c2ncn3C)cc1[N+](=O)[O-]
GI50: > 100 µM (inactive)

MOLECULE: CC1(C)OC([C@H](O)CO)C([C@H]2NCCS2)O1 (some centres not stated)
GI50: > 100 µM (inactive)

MOLECULE: Cc1cc2c(cc1-c1cc3c(cc1C)C(C(C)C)=C(O)C(=O)/C3=C\Nc1cccc3c(N)cccc13)/C(=C/Nc1cccc3c(N)cccc13)C(=O)C(O)=C2C(C)C
GI50: > 100 µM (inactive)

MOLECULE: Oc1c(Cl)c(Cl)c(O)c(CCNc2nccs2)c1Cl
GI50: 6.85 µM (inactive)

MOLECULE: COc1ccc(S(=O)(=O)N2C(=O)CCC2C(=O)NC(N)=O)cc1 (configuration not stated)
GI50: > 100 µM (inactive)

MOLECULE: COC(=O)/C=C1/CCC2[C@@H](C(=O)CC3[C@]2(C)CCC[C@@]3(C)C(=O)OC)C1C (some centres not stated)
GI50: 12.6 µM (inactive)

MOLECULE: O=C1OC(c2ccccc2)=N/C1=C\c1cc(Cl)ccc1Cl
GI50: 74.1 µM (inactive)

MOLECULE: CCOC(=O)CCC(NC(=O)c1ccc(Nc2nc3cc(C(F)(F)F)ccc3nc2C(=O)OCC)cc1)C(=O)OCC (configuration not stated)
GI50: > 10 µM (inactive)

// switching to the query molecule
q: Please look up its GI50: N#Cc1nc(C2SCCCS2)oc1N
a: > 100 µM (inactive)

====

System: SNB-75
Test: NCI tumour cell line growth inhibition, 48 h
Active and inactive are the calls of the source. Cut-off read from the data, not from the text of the source: active = GI50 up to about 1.1 µM and inactive = higher.
Reply using exactly one outcome from yes = active, no = inactive

Worked examples follow.
MOLECULE: CC1(C)OC([C@H](O)CO)C([C@H]2NCCS2)O1 (stereo partly specified)
CLASS_LABEL: no
--
MOLECULE: Cn1c(=O)c2ccccc2[n+]2c(-c3cccc([N+](=O)[O-])c3)csc12
CLASS_LABEL: no
--
MOLECULE: CCC[S+]([O-])c1nc(COC(=O)NC)c(COC(=O)NC)n1C (stereo unspecified)
CLASS_LABEL: no
--
MOLECULE: COC12OC3CC4(C)C(=CC3OC(OC(C)C1O)C2O)CCC1C4CCC2(C)C(c3ccc(=O)oc3)CCC12O (stereo unspecified)
CLASS_LABEL: yes
--
MOLECULE: COc1ccc2cc(CNCCCCCCCCCCCCNCc3ccc4cc(OC)ccc4c3)ccc2c1
CLASS_LABEL: no

q: Each molecule tested received a call. Report the one for Cc1ccc(C2(O)CS/C(=N\C34CC5CC(CC(C5)C3)C4)N2C(P(=O)(O)O)P(=O)(O)O)cc1 (stereo unspecified) .
a: no

q: Please give the result for c1ccc(CC2COC(c3cccs3)=N2)cc1 (stereo unspecified) too.
a: no
